Readings of YAP1 (% UTC) for the listed substances
tested on: Yap1 mRNA; assay: Antisense inhibition of human Yap1 in A-431 cells by cEt gapmers, single dose (Example 2, RTS4814); format: cell-based; settings: Table 23; Yap1 mRNA as percent of untreated control; 3-10-3 cEt gapmers; single dose
Strand notation (5' to 3'): a small letter for the sugar, then the base; units joined by * are phosphorothioate-linked, units joined directly phosphodiester-linked; [ ] holds rarer units or linkages, { } end groups; capitals alone tell only the bases. k = constrained ethyl (cEt); [5mC] = 5-methylcytosine; d = 2'-deoxy (DNA)
The figure you give is taken to be in % UTC; do not add the unit.

Some solved cases for reference:
1076393 (k[5mC]*kT*kT*dT*dA*d[5mC]*dT*dT*dA*d[5mC]*dT*dG*dG*kT*kG*kG; antisense) [Compound 1076393]
4
1075113 (antisense kT*kA*kT*dA*dA*dA*dT*dA*d[5mC]*d[5mC]*dA*dG*dG*kT*kA*k[5mC]) [Compound 1075113]
67
1075497 (kA*kT*kT*dA*dT*dA*dT*dA*dA*dT*dG*d[5mC]*dA*kG*kG*k[5mC]; antisense) [Compound 1075497]
14
1075369 (kG*kG*kA*dG*dA*dA*dT*dA*dA*dG*d[5mC]*dA*dA*kT*k[5mC]*kA; antisense) [Compound 1075369]
31

Task: Quote YAP1 (% UTC) reported for 1074633 (antisense kG*kA*kG*dG*d[5mC]*dT*dT*dT*dT*d[5mC]*dA*dT*dA*kG*k[5mC]*kA) [Compound 1074633] please.
Result: 78

Task: Quote YAP1 (% UTC) reported for 1074313 (antisense kT*kG*kA*dT*dA*dT*dT*d[5mC]*d[5mC]*dG*d[5mC]*dA*dT*kT*kG*k[5mC]) [Compound 1074313] please.
Result: 5

Task: Quote YAP1 (% UTC) reported for 1075913 (k[5mC]*k[5mC]*k[5mC]*d[5mC]*dT*dA*dT*dA*d[5mC]*dT*dT*dT*dT*kT*kG*kA; antisense) [Compound 1075913] please.
Result: 46

Task: Quote YAP1 (% UTC) reported for 1074409 (antisense kG*kG*kA*dT*dT*dA*dA*dA*dG*dT*dA*dT*d[5mC]*kT*kT*kG) [Compound 1074409] please.
Result: 6

Task: Quote YAP1 (% UTC) reported for 1074889 (antisense kA*kG*kT*dT*dT*dA*dG*d[5mC]*d[5mC]*dT*dG*dA*dA*kG*k[5mC]*kA) [Compound 1074889] please.
Result: 42
